B1: Hairpin Ribozyme (parent)
chain: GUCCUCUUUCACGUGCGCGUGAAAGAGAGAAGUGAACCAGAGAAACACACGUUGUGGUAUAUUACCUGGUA

variants of: B1; assay: self-cleavage, relative activity (ratio to wild type); higher = more cleavage; co-transcriptional
Would you mind labelling by self-cleavage? At or over 0.2 is 1.0, under is 0.0.

> print(dat)
                                         seq  class.label
 1  GUCCUCUUGCACGUGCGCGUGAAAGAGAGAAGUGAACCAGGGAAACACACGUUGUGGUAUAUUACCUGGUA          1.0
 2  GUCCUCUUUCACGUGCGCGUGAAAGAGAGAAGUGAGCCAGAGAAACACACGUUGUGGUAUAUAACCUGGUA          1.0
 3  GUCCUCUUUCACGUGCGCGUGAAAGAGAGUAGUGAACCAGAGAAACACACGUUGUGGUAUAUUACCUGGAA          0.0
 4  GUCCUGUUUCACGUGCGCGUGAAAGAGAGAAGUGAACCAGAGAAACAAACGUUGUGGUAUAUUACCUGGUA          0.0
 5  GUCCUCUUUCACGUGGGCGUGAAAGAGAGAAGUGUACCAGAGAAACACACGUUGUGGUAUAUUACCUGGUA          1.0
 6  GUCCUCUUUCACGUGCGCGUGGAAGAGAGUAGUGAACCAGAGAAACACACGUUGUGGUAUAUUACCUGGUA          0.0
 7  GUCCUCUUUCACGUGCGCGUGAAAGAGAGAAGUUAACCAGAGAAACCCACGUUGUGGUAUAUUACCUGGUA          1.0
 8  GUCCUCUUUCACGUGCGCAUGAAAGAGAGAAGUGAAUCAGAGAAACACACGUUGUGGUAUAUUACCUGGUA          1.0
 9  GUCCUCUUUCACGUGCGCGUGAAAGAGAAAAGUGAACCAGAAAAACACACGUUGUGGUAUAUUACCUGGUA          0.0
10  GUCCUCUUUCACGUGCGCGUGACAGAGAGAAGUGAACCAGAGAAACACACGUUGUGGUAUAUUACCUGGCA          1.0
11  GUCCUCCUUCACGUGCGCGUGAAAGAGAGAAGUGAACCAGAGAAACACACGUUCUGGUAUAUUACCUGGUA          1.0
12  GUCCUCUUUCACGUGCGCGUGAAAGAGAGAAGUGACCCAAAGAAACACACGUUGUGGUAUAUUACCUGGUA          0.0
13  GUCCUCUUUCACGUGCGCGUGAGAGAGAGAAGUGAACCAGAGAAACACCCGUUGUGGUAUAUUACCUGGUA          0.0
14  GUCCUCUUUCACGUGCCCGUGAAAGCGAGAAGUGAACCAGAGAAACACACGUUGUGGUAUAUUACCUGGUA          1.0
15  GUCCUCUUUCACGUGCGCGUGAAAGAGAGAAGUGAACCAGAGAAACACACGUUGUGGUGUAUUAGCUGGUA          1.0
16  GUCCUCUUUCGCGUGCGCGUGAAAGAGAGAAGUUAACCAGAGAAACACACGUUGUGGUAUAUUACCUGGUA          1.0
